Origin of the recorded values: PubChem BioAssay (NCI)

system: K-562 leukemia; experiment: NCI-60 one-dose screen, 48 h (100 = growth as untreated, 0 = no growth, -100 = all killed); settings: 10 µM unless noted
Compounds without any hit were thinned out: in the full panel of roughly 83,000, 20% have a hit.
TEST_READOUT: growth (%)
Quick reminder: number only, in %, skip the unit.

The examples below pair each entry with its known result.
*Q* If you can, please state the reported growth value of CC(Nc1ncnc2ccc(-c3ccc4oc(N)nc4c3)cc12)c1ccccc1 (configuration not stated) .
*A* 7.11

*Q* Entry to check: "COc1cc(CNC(=O)C[C@H](C)CCC=C(C)C)ccc1OCc1cn(-c2ccccc2Cl)nn1"
*A* 44.6

*Q* Then COc1ccc2c(c1)C(Sc1ccc(F)cc1)c1c(nc(N)c(C#N)c1N)O2 (configuration not stated) ?
*A* 63.5

***
*Q* Entry under review: "CCCCNc1ccc2c3c(cccc13)C(=O)N(c1cccc(-c3nn(-c4ccccc4)cc3-c3nc4ccccc4s3)c1)C2=O" . Reported growth?
*A* 89.5

*Q* Next up: "S=C(NCCc1ccccc1)Nc1ccc(OCc2nc3ccc(Cl)cc3[nH]2)cc1"
*A* 10.1

*Q* // same read-out, input: "S=C(Nc1ccc(OCc2nc3ccc(Cl)cc3[nH]2)cc1)NC1CCCCC1"
*A* 5.65

*Q* Next: CC1=NN(C2=NC(=O)C(CC(=O)Nc3ccccc3C(F)(F)F)S2)C(c2ccc(N(C)C)cc2)C1 (configuration not stated)
*A* 28.3
